TARGET OF ASSAY: PLA2G7 (Mus musculus)
Construct: Proteomes (mouse brain membrane fraction or cell lysates); from tissue; host or cells: mouse brain membrane fraction (or cell lysates, not specified)
Sequence (Q60963 22-440): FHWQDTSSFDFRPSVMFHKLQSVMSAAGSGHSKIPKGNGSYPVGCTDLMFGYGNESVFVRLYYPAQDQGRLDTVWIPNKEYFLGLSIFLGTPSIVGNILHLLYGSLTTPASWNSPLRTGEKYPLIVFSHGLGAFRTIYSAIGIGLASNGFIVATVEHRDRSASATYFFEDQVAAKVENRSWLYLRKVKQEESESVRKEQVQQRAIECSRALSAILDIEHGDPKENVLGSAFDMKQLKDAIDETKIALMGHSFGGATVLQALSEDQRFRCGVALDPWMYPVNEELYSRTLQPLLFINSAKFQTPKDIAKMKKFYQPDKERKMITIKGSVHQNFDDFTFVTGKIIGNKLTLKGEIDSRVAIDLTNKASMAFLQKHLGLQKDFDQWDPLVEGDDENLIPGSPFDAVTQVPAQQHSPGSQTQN
EXPERIMENT DESCRIPTION: In vitro competitive activity-based protein profiling (gel-based, FP-Rh or HT-01 probe)
Assay type: biochemical
MEASUREMENT CONTEXT: 1 μM inhibitor; read-out: % Inhibition at 1 μM, D = PLA2G7
Listed here: items and their measured inhibition at 1 µM.

Below are worked cases with known answers.
O=C(N1CCN(Cc2ccc(N3CCOCC3)cc2)CC1)n1cc(Cl)cn1	> 75%
O=C(c1cnn(C(=O)N2CCN(Cc3cccnc3)CC2)c1)N1CCCC1	< 25%
O=C(N1CCOCC1)n1cc(C(F)(F)F)cn1	> 75%
O=C(c1cnn(C(=O)N2CCN(Cc3ccncn3)CC2)c1)N1CCCC1	< 25%
CN(Cc1cccc(-c2ccncc2)c1)C(=O)n1cc(Cl)cn1	25 to 75%

What value of inhibition at 1 µM has been recorded for this entry: O=C(N1CCN(Cc2ccc(OCc3ccccc3)cc2)CC1)n1cccn1
< 25%

Requested read-out: inhibition at 1 µM. Entry: NC(=O)c1cnn(C(=O)N2CCN(Cc3ccc(Cl)cc3)CC2)c1
< 25%

inhibition at 1 µM lookup needed for O=C(N1CCCN(Cc2ccccc2)CC1)n1cc(C(F)(F)F)cn1 , thanks.
< 25%

Which measured inhibition at 1 µM value corresponds to N#Cc1cnn(C(=O)NCCCCc2ccccc2)c1 ?
< 25%

###

TARGET OF ASSAY: FAAH (Mus musculus)
Construct: Proteomes (mouse brain membrane fraction or cell lysates); from tissue; host or cells: mouse brain membrane fraction (or cell lysates, not specified)
Sequence (O08914 whole entry): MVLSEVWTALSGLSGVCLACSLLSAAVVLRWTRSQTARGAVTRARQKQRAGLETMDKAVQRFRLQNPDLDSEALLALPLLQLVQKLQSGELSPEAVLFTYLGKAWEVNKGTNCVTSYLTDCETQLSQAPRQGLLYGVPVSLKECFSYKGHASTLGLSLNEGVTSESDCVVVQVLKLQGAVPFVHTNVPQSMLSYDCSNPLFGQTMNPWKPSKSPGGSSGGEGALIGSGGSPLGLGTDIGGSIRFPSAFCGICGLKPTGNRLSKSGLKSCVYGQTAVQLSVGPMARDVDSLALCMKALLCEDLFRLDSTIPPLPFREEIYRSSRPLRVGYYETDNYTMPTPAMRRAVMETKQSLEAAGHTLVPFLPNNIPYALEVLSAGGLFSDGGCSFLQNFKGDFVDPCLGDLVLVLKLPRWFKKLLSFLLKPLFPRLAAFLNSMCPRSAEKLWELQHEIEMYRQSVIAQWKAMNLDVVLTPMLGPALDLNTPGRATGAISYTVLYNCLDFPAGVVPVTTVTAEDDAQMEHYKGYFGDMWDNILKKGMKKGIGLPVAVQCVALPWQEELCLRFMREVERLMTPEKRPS
EXPERIMENT DESCRIPTION: In vitro competitive activity-based protein profiling (gel-based, FP-Rh or HT-01 probe)
Assay type: biochemical
MEASUREMENT CONTEXT: mouse brain membrane fraction or cell lysates, 30 min preincubation at 37° C.; read-out: Mouse (IC50 value, nM) FAAH
Protocol: In Vitro Competitive Activity-Based Protein Profiling. Proteomes (mouse brain membrane fraction or cell lysates) (50 μL, 1.0 mg/mL total protein concentration) were preincubated with varying concentrations of inhibitors at 37° C. […] Following gel imaging, serine hydrolase activity was determined by measuring fluorescent intensity of gel bands corresponding to MAGL, ABHD6, FAAH, and PLA2G7 using ImageJ 1.43u software.
MEASURED ENDPOINT: IC50

Field: example entries. Status: answers known.
O=C(N1CCN(Cc2ccc(Cl)cc2N2CCOCC2)CC1)n1cc(Cl)cn1	100 to 1000 nM
CCN(Cc1ccc(Cl)cc1)C(=O)n1cc(C(F)(F)F)cn1	< 100 nM

I would be grateful if you could share the reported IC50 for COc1ccccc1N1CCN(C(=O)n2cc(C(F)(F)F)cn2)CC1 .
< 100 nM

Query (compound): CCN(Cc1ccc(OC)cc1)C(=O)n1cc(C(F)(F)F)cn1 ; field requested: IC50
< 100 nM

Returns the measured IC50 for the input compound. Input: O=C(N1CCN(Cc2cccc(N3CCOCC3)c2)CC1)n1cc(C(F)(F)F)cn1
100 to 1000 nM

Fill in the blank: the reported IC50 of O=C(N1CCN(Cc2ccc(N3CCCC3)cc2)CC1)n1cc(Cl)cn1 is ____.
100 to 1000 nM

What measured IC50 goes with O=C(N1CCN(C(c2ccc(Cl)cc2)c2ccc(Cl)cc2)CC1)n1cc(Cl)cn1 ?
> 1000 nM
